# melting point per record follows

[[record]]
molecule_smiles = "O=[N+]([O-])c1cnc2ccccc2c1O"
result_value = "> 345 °C"


We next turn to a different compound, shown below.
Task item: Return reported melting point; argument: `OCc1ccc(N2CCCCC2)cc1`
Reply: 148 to 149 °C

###

Reported melting point values for a set of compounds

[[record]]
compound = "Cn1nc(-c2cccs2)cc1CN"
readout_name = "melting point"
result_value = "77 to 78 °C"

[[record]]
compound = "CN1CCOc2cc(S(=O)(=O)Cl)cnc21"
readout_name = "melting point"
result_value = "130 to 132 °C"

[[record]]
compound = "CCCCC(C(=O)O)C(=O)O"
readout_name = "melting point"
result_value = "104 °C"

[[record]]
compound = "Clc1cnc(Cl)c(Cl)c1"
readout_name = "melting point"
result_value = "49 °C"

[[record]]
compound = "Oc1ccc(C2SCCS2)cc1"
readout_name = "melting point"
result_value = "118 °C"

[[record]]
compound = "COc1ccc(N/N=C(/C#N)c2nc(-c3ccc(C)cc3)cs2)cc1"
readout_name = "melting point"
result_value = "145 °C"

[[record]]
compound = "COC1CC2C3(C)CCCC2(COC3O)C2C(OC(C)=O)CC3C(C)C(=O)C12C3O (stereo not given)"
readout_name = "melting point"
result_value = "200 °C"

[[record]]
compound = "O=CNCC(=O)O"
readout_name = "melting point"
result_value = "149 °C"

[[record]]
compound = "Cn1ccc2c(S(=O)(=O)Cl)cccc21"
readout_name = "melting point"
result_value = "94 to 98 °C"

[[record]]
compound = "N=C(N)NC(N)=O"
readout_name = "melting point"
result_value = "105 °C"


Task item: Look up melting point: `Cc1ccc(CC#N)cc1`
Reply: 18 °C

Task item: Same thing, different compound: `Cc1ccc(N)c(Cl)n1`
Reply: 88 to 91 °C

Task item: Try `Cc1noc(C)c1-c1nc(CCl)no1` next.
Reply: 88 to 90 °C

Task item: Query `CCCOC(=O)C(=O)OCCC` next
Reply: -44.3 °C

Task item: Quick one: `O=C1NCNC1(c1ccccc1)c1ccccc1`
Reply: 183 °C

Task item: Consider next the compound `CN(C(=O)C(Cl)Cl)c1ccc(O)cc1` in the same way.
Reply: 175 °C

Task item: Entry to check: `CCCCCC(=O)OC`
Reply: -71 °C

Taken from a melting point compilation (Tetko et al.).
